Reference for the values: paper PMC6013495

# experimentDescription: Peptide stability in rat plasma
# Format: in vitro ADME
# conditions: rat, fresh plasma of male Wistar rats, 37 °C, 240 minutes, HPLC-MS, triplicate, mean, read-out: starting material detected after incubation in plasma
# Description: The linear peptide and c(MyD 4-4) (10 µg/ml) were mixed with fresh plasma from male Wistar rats (Harlan, Israel) and incubated at 37 °C for 240 min. Triplicate samples were taken at time 0 and after 5, 30, 60, 120, 180 and 240 min. Rat brush border membrane vesicles (BBMV) were prepared by Ca^2+ precipitation from the combined duodenum, jejunum, and upper ileum of male rats as described[41],[42]. Briefly, intestines were washed with ice cold saline and separated from mucus. […]
Numbered stars: 1 amine (or outer) side, 2 acyl side, 3 side chain; on linkers, the order of the positions; unused ones are H or OH. Bridge positions count the residues as written; N and C are the ends. Square brackets hold non-standard residues; d marks the D form. Peptide text beside a SMILES is read from it. CO = O=C([*:1])[*:2]; Nlys = NCCCCNCC(=O)O
property: remaining at 4 h, 10 µg/ml

Would you kindly share the measured remaining at 4 h, 10 µg/ml for CC(C)C[C@@H]1NC(=O)[C@H](C(C)C)NC(=O)[C@H](CC(=O)O)NC(=O)[C@H](CCCNC(=N)N)NC(=O)CN(C(=O)[C@@H](N)Cc2c[nH]c3ccccc23)CCCCNC(=O)NCCCCN(CC(=O)NCC(=O)N[C@H](C(N)=O)[C@@H](C)O)C1=O [c(MyD 4-4)] (H-W[Nlys]RDVL[Nlys]GT-NH2; linker 2-7 via CO) ?
> 90%
